Conditions: Crystal; DTA
± gives the expanded uncertainty stated by the source.
Normal melting temperature reference

The cases that follow already have their Normal melting temperature on record.
Need Normal melting temperature of `c1c[nH]cn1` , thanks.
86.2 ± 0.4 °C

Need Normal melting temperature of `Cn1ccnc1` , thanks.
-4.5 ± 1.2 °C

Need Normal melting temperature of `Clc1nc[nH]c1Cl` , thanks.
183.6 ± 0.6 °C

Need Normal melting temperature of `Cn1cnc(C#N)c1C#N` , thanks.
87.1 ± 0.3 °C

Need Normal melting temperature of `N#Cc1nc[nH]c1C#N` , thanks.
176 ± 0.5 °C

Consider the record given below.
Need Normal melting temperature of `Cn1cnc(Cl)c1Cl` , thanks.
57.0 ± 0.3 °C
